target: human TREM2/DAP12 fusion protein (human, UniProt O43914 41-113, limits assumed); test: cell-based or functional assay
Sequence (O43914 other isoform, or with tags, fused parts or gaps limits assumed): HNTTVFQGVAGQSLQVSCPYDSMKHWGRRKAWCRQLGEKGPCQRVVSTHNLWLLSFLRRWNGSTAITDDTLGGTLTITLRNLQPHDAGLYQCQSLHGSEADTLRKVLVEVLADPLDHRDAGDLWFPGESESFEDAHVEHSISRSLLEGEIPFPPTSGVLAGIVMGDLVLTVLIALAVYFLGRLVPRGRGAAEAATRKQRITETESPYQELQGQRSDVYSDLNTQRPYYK
PARAMETER MEASURED: Reporter assay soluble IgG (EC50, nM)
Give the number first and the unit second.

Fill in the blank: the reported Reporter assay soluble IgG (EC50, nM) of AL2p (parental mouse anti-TREM2 antibody) (antibody, V domains shown, Parental mouse antibody; Fab and IgG formats under one id; also called 9F5; 9F5a) VH: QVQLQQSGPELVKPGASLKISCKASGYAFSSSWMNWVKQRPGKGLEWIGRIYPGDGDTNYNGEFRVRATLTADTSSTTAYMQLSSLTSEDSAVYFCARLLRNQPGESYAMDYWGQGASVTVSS VL: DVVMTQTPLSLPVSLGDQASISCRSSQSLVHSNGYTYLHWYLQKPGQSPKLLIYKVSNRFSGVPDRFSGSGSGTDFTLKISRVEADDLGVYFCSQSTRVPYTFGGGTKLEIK is ____.
19 nM
